Target: alpha-thrombin (Homo sapiens) (UniProt P00734+P00734)
Assay: filter
Details: 5-BrdU replaces T; apparent photocrosslink KD; plateau 9%; rate 0.64; Table 7 sequence differs from listing (GGTTGCTGTGG vs ggttggcgtgg)
Experimental endpoint: Kd (nM)
Write the answer as a number in nM, unit excluded.

Please fill in: Kd reported for ATATATATGGGAGGACGATGCGGGCGGTTGGCGTGGTTGGAAATGTCCCGTCAGACGACGAGCGGGAAAAAAAA [Thrombin pool 5 clone 77] = 0.05

----------
Biological target: P-Selectin (Homo sapiens) (UniProt P16109)
Sequence: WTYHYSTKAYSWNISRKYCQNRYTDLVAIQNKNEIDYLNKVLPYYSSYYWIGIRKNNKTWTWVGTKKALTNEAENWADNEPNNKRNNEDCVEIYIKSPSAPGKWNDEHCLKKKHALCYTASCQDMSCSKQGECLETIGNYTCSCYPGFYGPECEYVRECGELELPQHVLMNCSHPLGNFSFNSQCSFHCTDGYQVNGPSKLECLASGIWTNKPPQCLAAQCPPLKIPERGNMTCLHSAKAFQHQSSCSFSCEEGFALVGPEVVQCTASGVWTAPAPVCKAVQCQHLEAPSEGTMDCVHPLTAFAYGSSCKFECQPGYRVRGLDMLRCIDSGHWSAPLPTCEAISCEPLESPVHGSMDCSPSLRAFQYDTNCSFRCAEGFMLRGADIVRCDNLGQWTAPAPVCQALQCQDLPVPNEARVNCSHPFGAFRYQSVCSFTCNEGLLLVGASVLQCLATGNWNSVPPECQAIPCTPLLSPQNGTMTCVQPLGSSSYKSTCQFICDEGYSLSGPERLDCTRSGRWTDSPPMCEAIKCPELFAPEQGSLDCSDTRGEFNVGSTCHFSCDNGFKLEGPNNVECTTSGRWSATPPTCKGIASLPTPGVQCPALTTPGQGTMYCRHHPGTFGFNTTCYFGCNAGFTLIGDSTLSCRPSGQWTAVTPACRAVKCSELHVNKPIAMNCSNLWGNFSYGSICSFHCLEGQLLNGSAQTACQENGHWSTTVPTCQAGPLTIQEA
Assay: filter
Details: 5-BrdU replaces T; apparent photocrosslink KD; plateau 31%; rate 0.76
Experimental endpoint: pKd
pKd is defined as minus the log10 of a concentration measured in mol/L.

Please fill in: pKd reported for ATATATATGGGAGGACGATGCGGCACGAGGGAATCACCTCGAACTTGTCCTGGATTACTGCCCAGACGACGAGCGGGAAAAAAAA [P-selectin pool 014 clone 21] = 8.04

----------
Target: platelet-derived growth factor (PDGF) (Homo sapiens)
Assay: filter
Conditions: 5-BrdU replaces T; apparent photocrosslink KD; plateau 71%; rate 0.07
Experimental endpoint: Kd

Simply: ATATATATGGGAGGACGATGCGGCCGGACATCCCCCAGGGCAAAACCAACTCCCAGACGACGAGCGGGAAAAAAAA [PDGF pool 008 clone 35] , platelet-derived growth factor (PDGF) (Homo sapiens), Kd = 5.1 nM

----------
Target: Angiogenin (UniProt P03950)
Sequence (P03950 25-147): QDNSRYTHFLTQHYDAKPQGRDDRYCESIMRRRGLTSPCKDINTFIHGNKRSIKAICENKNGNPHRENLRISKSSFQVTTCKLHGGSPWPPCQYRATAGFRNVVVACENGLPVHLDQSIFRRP
Experiment: filter
Details: 5-BrdU replaces T; apparent photocrosslink KD; plateau 26%; rate 0.52
Experimental endpoint: pKd
pKd is defined as minus the log10 of a concentration measured in mol/L.

Simply: ATATATATGGGAGGACGATGCGGGCAAAGTCTTGGTCCACCAAATATGTGATGTCACCACCAGCAGACGACGAGCGGGAAAAAAAA [Angiogenin pool 011 clone 59] , Angiogenin (UniProt P03950), pKd = 9.66

----------
Target: Angiogenin (UniProt P03950)
Test: filter
Details: 5-BrdU replaces T; apparent photocrosslink KD; plateau 34%; rate 1.3
Experimental endpoint: pKd
pKd is defined as minus the log10 of a concentration measured in mol/L.

Simply: ATATATATGGGAGGACGATGCGGGCACCTACCTGAGCTACATATGACAGTGTCACCCTGGCCCCAGACGACGAGCGGGAAAAAAAA [Angiogenin pool 011 clone 14] , Angiogenin (UniProt P03950), pKd = 9.70

----------
Molecular target: platelet-derived growth factor (PDGF) (Homo sapiens) (UniProt P01127)
Sequence (P01127 82-190): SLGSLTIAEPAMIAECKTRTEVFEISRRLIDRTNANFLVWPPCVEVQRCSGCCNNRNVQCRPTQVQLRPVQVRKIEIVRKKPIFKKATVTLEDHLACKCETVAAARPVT
Assay: filter
Conditions: 5-BrdU replaces T; apparent photocrosslink KD; plateau 53%; rate 0.2
Experimental endpoint: Kd (nM)
Write the answer as a number in nM, unit excluded.

Please fill in: Kd reported for ATATATATGGGAGGACGATGCGGGCGAAGGCACACCGAGTTCATAGTATCCCACAGACGACGAGCGGGAAAAAAAA [PDGF pool 4 clone 64] = 4

----------
Biological target: IGFBP-3 (UniProt P17936)
Sequence (P17936 28-291): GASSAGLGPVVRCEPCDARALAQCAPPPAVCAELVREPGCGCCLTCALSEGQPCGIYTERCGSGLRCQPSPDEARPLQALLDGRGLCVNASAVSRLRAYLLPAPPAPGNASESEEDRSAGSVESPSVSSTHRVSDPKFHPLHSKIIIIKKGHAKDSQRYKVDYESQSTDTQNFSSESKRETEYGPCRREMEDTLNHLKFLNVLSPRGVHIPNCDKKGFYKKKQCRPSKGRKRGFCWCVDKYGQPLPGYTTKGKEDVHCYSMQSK
Assay: filter
Conditions: 5-BrdU replaces T; apparent photocrosslink KD; plateau 52%
Experimental endpoint: Kd (nM)
Write the answer as a number in nM, unit excluded.

Please fill in: Kd reported for ATATATATGGGAGGACGATGCGGGCAAAGTGTTATTTCTTGATCTGTTTCACCCAGACGACGAGCGGGAAAAAAAA [IGFBP-3 pool 112 clone 65] = 6

----------
Molecular target: Endostatin (UniProt P39060)
Sequence: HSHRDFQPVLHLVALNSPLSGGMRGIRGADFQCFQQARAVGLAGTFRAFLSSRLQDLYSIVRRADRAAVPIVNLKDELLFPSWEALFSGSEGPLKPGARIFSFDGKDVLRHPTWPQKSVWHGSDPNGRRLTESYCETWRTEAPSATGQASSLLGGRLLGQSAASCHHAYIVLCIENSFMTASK
Assay: filter
Conditions: 5-BrdU replaces T; apparent photocrosslink KD; plateau 75%
Experimental endpoint: pKd
pKd is defined as minus the log10 of a concentration measured in mol/L.

Please fill in: pKd reported for ATATATATGGGAGGACGATGCGGCACAATGAAGTCACTCTTGACGCTTGTATTCAGACGACGAGCGGGAAAAAAAA [Endostatin pool 92 clone 4] = 8.57

----------
Target: P-Selectin (Homo sapiens)
Sequence: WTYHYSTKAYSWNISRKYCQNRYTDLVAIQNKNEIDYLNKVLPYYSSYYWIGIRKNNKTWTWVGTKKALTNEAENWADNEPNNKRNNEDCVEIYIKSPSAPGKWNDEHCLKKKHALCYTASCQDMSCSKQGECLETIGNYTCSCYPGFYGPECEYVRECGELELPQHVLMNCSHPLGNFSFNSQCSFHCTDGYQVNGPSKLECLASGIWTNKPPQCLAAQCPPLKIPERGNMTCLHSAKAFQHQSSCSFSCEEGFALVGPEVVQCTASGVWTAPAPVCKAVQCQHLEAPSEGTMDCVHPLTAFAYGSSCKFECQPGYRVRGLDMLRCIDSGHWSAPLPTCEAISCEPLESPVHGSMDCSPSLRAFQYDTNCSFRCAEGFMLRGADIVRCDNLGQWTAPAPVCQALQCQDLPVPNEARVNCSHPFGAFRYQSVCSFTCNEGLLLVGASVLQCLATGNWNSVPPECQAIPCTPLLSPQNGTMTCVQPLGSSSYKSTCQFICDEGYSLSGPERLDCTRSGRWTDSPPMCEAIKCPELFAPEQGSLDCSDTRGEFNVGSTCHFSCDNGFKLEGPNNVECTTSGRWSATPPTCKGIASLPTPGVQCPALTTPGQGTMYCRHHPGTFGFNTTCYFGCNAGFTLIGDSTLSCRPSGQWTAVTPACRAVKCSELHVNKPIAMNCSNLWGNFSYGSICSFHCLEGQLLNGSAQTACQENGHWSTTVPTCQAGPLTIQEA
Test: filter
Conditions: 5-BrdU replaces T; apparent photocrosslink KD; plateau 15%; rate 4
Experimental endpoint: Kd (pM)
Write the answer as a number in pM, unit excluded.

Simply: ATATATATGGGAGGACGATGCGGCGCCCCGATTGACCTTCGATTTATCCTACTTATGGCACCCCAGACGACGAGCGGGAAAAAAAA [P-selectin pool 014 clone 14] , P-Selectin (Homo sapiens), Kd = 350

----------
Target: Interleukin-4 (UniProt P05112)
Sequence: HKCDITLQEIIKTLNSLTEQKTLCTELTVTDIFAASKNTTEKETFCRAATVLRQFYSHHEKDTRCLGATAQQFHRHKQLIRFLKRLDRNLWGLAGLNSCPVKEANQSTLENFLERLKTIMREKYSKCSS
Test: filter
Conditions: 5-BrdU replaces T; apparent photocrosslink KD; plateau 58%; rate 0.54; Table 7 sequence differs slightly from listing
Experimental endpoint: pKd
pKd is defined as minus the log10 of a concentration measured in mol/L.

Please fill in: pKd reported for ATATATATGGGAGGACGATGCGGGCCAAGGTTCCCTTCTGCCTCATTGTTGTGGGAACCCATCCAGACGACGAGCGGGAAAAAAAA [IL-4 pool 012 clone 41] = 7.21

----------
Molecular target: Serum Amyloid P (UniProt P02743)
Sequence (P02743 20-223): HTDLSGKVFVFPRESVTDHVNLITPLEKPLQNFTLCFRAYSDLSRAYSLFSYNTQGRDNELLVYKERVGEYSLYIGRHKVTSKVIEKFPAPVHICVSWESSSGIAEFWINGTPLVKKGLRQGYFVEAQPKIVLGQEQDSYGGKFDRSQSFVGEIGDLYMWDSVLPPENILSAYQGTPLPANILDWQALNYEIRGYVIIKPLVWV
Assay: filter
Conditions: 5-BrdU replaces T; apparent photocrosslink KD; plateau 55%
Experimental endpoint: Kd (nM)
Write the answer as a number in nM, unit excluded.

Please fill in: Kd reported for ATATATATGGGAGGACGATGCGGGCCGACTCTGAGGAAAAGGTTTTATGTATGGCTACCCCTGCAGACGACGAGCGGGAAAAAAAA [Serum Amyloid P pool 051 clone 50] = 0.54
